Answer each item with its documented MIC of ampicillin in the presence of inhibitor.
tested on: E. coli MG1655 + pBGS18 + CTX-M-14; experiment: MIC broth microdilution, ampicillin with or without inhibitor; format: cell-based, Escherichia coli; settings: CTX-M-14 (Class A, ESBL); inhibitor concentration 16 μg mL^–1; 20 h, 37 °C
Return type: number; implicit unit μg mL^–1.

Ask: Name the reported MIC of ampicillin in the presence of inhibitor value associated with the molecule `C[C@]1(COC(=O)c2ccncc2O)[C@H](C(=O)[O-])N2C(=O)/C(=C/c3ccccn3)[C@H]2S1(=O)=O.[Na+]`
Result: 1024

Ask: What measured MIC of ampicillin in the presence of inhibitor goes with `C[C@]1(COC(=O)c2cc(Cl)ccc2O)[C@H](C(=O)[O-])N2C(=O)/C(=C/c3ccccn3)[C@H]2S1(=O)=O.[Na+]` ?
Result: 512

Ask: Quick one: MIC of ampicillin in the presence of inhibitor for `CC1(C)[C@H](C(=O)[O-])N2C(=O)/C(=C/c3cc(CCCOC(=O)Cc4ccc(O)c(O)c4)ccn3)[C@H]2S1(=O)=O.[Na+]` ?
Result: 1024

Ask: Recorded MIC of ampicillin in the presence of inhibitor of `C[C@]1(COC(=O)CCc2ccc(O)c(O)c2)[C@H](C(=O)[O-])N2C(=O)/C(=C/c3ccccn3)[C@H]2S1(=O)=O.[Na+]` , please.
Result: 32
